Values compiled from ChEMBL document CHEMBL5058577.

system: HEK-293T; test: Multiplex assay against HEK293T; type: toxicity, cell-based; conditions: human, 12 h, 1 µM, compound concentration 1 uM, replicate 2
Consider the following molecules; for each one, report its Population Mitotic Cells (%).
Just the number please, in %, no unit attached.

For CC(C)COc1ccc(CNC(=O)N(Cc2ccc(F)cc2)C2CCN(C)CC2)cc1 , what is its reported Population Mitotic Cells (%)?
46

Same thing, different molecule: CC(=O)Nc1cccc2c1c(Sc1ccc(Cl)cc1)c(C)n2CC(=O)O
40

Same thing, different molecule: CCCCCC(O)/C=C/[C@H]1C(=O)CC(O)C1C/C=C\CCCC(=O)O (stereo partly specified)
60

Same thing, different molecule: O=C(CCCc1ccccc1)Nc1nc2ccccc2c(=O)s1
56

Same thing, different molecule: O=C1[C@H](Cc2ccc(O)cc2)N2C(=O)CCN(C(=O)NCc3ccccc3)[C@H]2CN1Cc1cccc2ccccc12
53

Same thing, different molecule: Cc1noc(-c2ccc(-c3ccc(CC(=O)O)cc3)cc2)c1NC(=O)O[C@H](C)c1ccccc1Cl
40

###

system: Fibroblast; experiment: Multiplex assay against human fibroblast; format: toxicity, cell-based; details: 48 h, 1 µM, compound concentration 1 uM, replicate 1
READOUT: Population Healthy Nuclei (%)
Just the number please, in %, no unit attached.

For Cl.N=C(N)NC(=O)Cc1c(Cl)cccc1Cl [GUANFACINE HYDROCHLORIDE] , what is its reported Population Healthy Nuclei (%)?
63

Same thing, different compound: NCCc1cn(S(=O)(=O)c2c(Cl)nc3sccn23)c2ccccc12.O=C(O)C(=O)O
63

Same thing, different compound: COc1ccccc1N1CCN(C[C@@H](C(=O)NC(C)(C)C)c2ccccc2)CC1.Cl.Cl
71

Same thing, different compound: CC[C@@H](C)Nc1nc(C)nc2c(-c3ccc(OC)nc3C)c(C)nn12
69

Same thing, different compound: O=C(CCCc1ccccc1)Nc1nc2ccccc2c(=O)s1
66

###

test system: U2OS; assay: Multiplex assay against U2OS; format: toxicity, cell-based; conditions: human, 24 h, 1 µM, compound concentration 1 uM, replicate 2
In plain terms, low Population Mitochondria Different-Phenotype (%), meaning strictly below 7%, gives yes (1), and everything else gives no (0).

Field: below-cutoff. Rule: recorded Population Mitochondria Different-Phenotype (%) strictly less than 7%. Subject: Cl.NCCc1ccc(O)c(O)c1 [DOPAMINE HYDROCHLORIDE]
yes (1)

Same thing, different molecule: CC(=O)Nc1cccc2c1c(Sc1ccc(Cl)cc1)c(C)n2CC(=O)O
yes (1)

Same thing, different molecule: COc1ccccc1N1CCN(C[C@@H](C(=O)NC(C)(C)C)c2ccccc2)CC1.Cl.Cl
yes (1)

Same thing, different molecule: CC[C@@H](C)Nc1nc(C)nc2c(-c3ccc(OC)nc3C)c(C)nn12
yes (1)

Same thing, different molecule: Cc1c(CC(=O)O)c2cccnc2n1Cc1ccc(S(C)(=O)=O)cc1C(F)(F)F
yes (1)

Same thing, different molecule: CC(C)COc1ccc(CNC(=O)N(Cc2ccc(F)cc2)C2CCN(C)CC2)cc1
no (0)

Same thing, different molecule: COC[C@@H](c1ccc(C(F)(F)F)cc1)N1CCN(C2(C)CCN(C(=O)c3c(C)ncnc3C)CC2)C[C@@H]1C.O=C(O)/C=C\C(=O)O [VICRIVIROC MALEATE]
no (0)

###

system: HEK-293T; test: Multiplex assay against HEK293T; assay type: toxicity, cell-based; conditions: human, 12 h, 10 µM, compound concentration 10 uM, replicate 2
READOUT: Population Pyknosed Nuclei (%)
Just the number please, in %, no unit attached.

Test system HEK-293T; read-out Population Pyknosed Nuclei (%); what value for O=C(NCCN1CCC(n2c(=O)[nH]c3cc(Cl)ccc32)CC1)c1ccc(F)cc1 [HALOPEMIDE] ?
21

Same thing, different compound: COc1cccc2c1c(NS(=O)(=O)c1ccc(Cl)s1)nn2Cc1cccc(CNC(=O)C(C)(C)O)c1
16

Same thing, different compound: Cl.N=C(N)NC(=O)Cc1c(Cl)cccc1Cl [GUANFACINE HYDROCHLORIDE]
14

Same thing, different compound: CN(C)C(=O)Cn1cc(-c2ccc(-c3cncc4ccccc34)cc2)cn1
15

Same thing, different compound: CC(=O)Nc1cccc2c1c(Sc1ccc(Cl)cc1)c(C)n2CC(=O)O
15

Same thing, different compound: CC(/C=C1\SC(=S)N(CCCC(=O)Nc2ccc(C(=O)O)c(O)c2)C1=O)=C\c1ccccc1
15

Same thing, different compound: Cc1noc(-c2ccc(-c3ccc(CC(=O)O)cc3)cc2)c1NC(=O)O[C@H](C)c1ccccc1Cl
18

Same thing, different compound: CCCCCC(O)/C=C/[C@H]1C(=O)CC(O)C1C/C=C\CCCC(=O)O (some centres undefined)
15

Same thing, different compound: Cc1c(CC(=O)O)c2cccnc2n1Cc1ccc(S(C)(=O)=O)cc1C(F)(F)F
12

###

tested on: U2OS; assay: Multiplex assay against U2OS; format: toxicity, cell-based; details: human, 24 h, 10 µM, compound concentration 10 uM, replicate 2
READOUT: Population Mitotic Cells (%)
Provide a numeric answer, followed by its unit.

For CC(C)COc1ccc(CNC(=O)N(Cc2ccc(F)cc2)C2CCN(C)CC2)cc1 [PIMAVANSERIN] , what is its reported Population Mitotic Cells (%)?
20%

Same thing, different compound: CC(/C=C1\SC(=S)N(CCCC(=O)Nc2ccc(C(=O)O)c(O)c2)C1=O)=C\c1ccccc1
46%

Same thing, different compound: CN1CCN(c2cc(-c3ccccc3)nc(N)n2)CC1
18%

Same thing, different compound: O=C1[C@H](Cc2ccc(O)cc2)N2C(=O)CCN(C(=O)NCc3ccccc3)[C@H]2CN1Cc1cccc2ccccc12
14%

Same thing, different compound: CC(C)(C)c1cc(NC(=O)Nc2ccc(-c3cn4c(n3)sc3cc(OCCN5CCOCC5)ccc34)cc2)no1 [QUIZARTINIB]
48%

Same thing, different compound: O=C(NCCN1CCC(n2c(=O)[nH]c3cc(Cl)ccc32)CC1)c1ccc(F)cc1 [HALOPEMIDE]
36%

Same thing, different compound: Br.CS(=O)(=O)Nc1c(O)ccc2c1CCCC2C1=NCCN1 (centres undefined)
0%

Same thing, different compound: CCc1cc2cc(NS(=O)(=O)c3ccc(C#N)cc3)ccc2n(CC)c1=O
20%

Same thing, different compound: Cc1noc(-c2ccc(-c3ccc(CC(=O)O)cc3)cc2)c1NC(=O)O[C@H](C)c1ccccc1Cl
9%

Same thing, different compound: Cc1cccc(NC(=O)CN2CCC(c3ccccn3)CC2)c1.Cl.Cl
25%

Same thing, different compound: Cc1cnc(-c2cc(N3CCN(C(=O)CCS(C)(=O)=O)CC3)ncc2Cl)c(C)c1
14%

Same thing, different compound: CC(=O)Nc1cccc2c1c(Sc1ccc(Cl)cc1)c(C)n2CC(=O)O [AZD1981]
0%

Same thing, different compound: CCCCC1=NC2(CCCC2)C(=O)N1Cc1ccc(-c2ccccc2-c2nnn[nH]2)cc1 [IRBESARTAN]
8%

Same thing, different compound: CCCCC(=O)N(Cc1ccc(-c2ccccc2-c2nnn[nH]2)cc1)[C@H](C(=O)O)C(C)C
15%

###

Consider the following molecules; for each one, report its Population Pyknosed Nuclei (%).
tested on: U2OS; test: Multiplex assay against U2OS; assay type: toxicity, cell-based; conditions: human, 48 h, 1 µM, compound concentration 1 uM, replicate 1
Just the number please, in %, no unit attached.

Test system U2OS; read-out Population Pyknosed Nuclei (%); what value for CCCCC(=O)N(Cc1ccc(-c2ccccc2-c2nnn[nH]2)cc1)[C@H](C(=O)O)C(C)C ?
7

Same thing, different molecule: Cc1noc(-c2ccc(-c3ccc(CC(=O)O)cc3)cc2)c1NC(=O)O[C@H](C)c1ccccc1Cl
9

Same thing, different molecule: Br.CS(=O)(=O)Nc1c(O)ccc2c1CCCC2C1=NCCN1 (centres undefined)
6

Same thing, different molecule: CN[C@@H](C)C(=O)N[C@H](C(=O)N1CCC[C@H]1C(=O)Nc1snnc1-c1ccccc1)C1CCCCC1 [GDC-0152]
32

Same thing, different molecule: CN(C)C(=O)Cn1cc(-c2ccc(-c3cncc4ccccc34)cc2)cn1
12

Same thing, different molecule: Cc1c(CC(=O)O)c2cccnc2n1Cc1ccc(S(C)(=O)=O)cc1C(F)(F)F [FEVIPIPRANT]
10

Same thing, different molecule: N#Cc1cc(F)cc(-c2nc(-c3ccc(F)cn3)no2)c1
9

Same thing, different molecule: COc1ccccc1N1CCN(C[C@@H](C(=O)NC(C)(C)C)c2ccccc2)CC1.Cl.Cl
11

Same thing, different molecule: C[C@H](N)COC(=O)[C@@H](CCCCN)NC(=O)Cc1c(-c2ccc3ccccc3c2)[nH]c2c1ccc1ccccc12
5

Same thing, different molecule: Cc1cnc(-c2cc(N3CCN(C(=O)CCS(C)(=O)=O)CC3)ncc2Cl)c(C)c1
7

Same thing, different molecule: COc1cccc2c1c(NS(=O)(=O)c1ccc(Cl)s1)nn2Cc1cccc(CNC(=O)C(C)(C)O)c1
9

Same thing, different molecule: CC[C@@H](C)Nc1nc(C)nc2c(-c3ccc(OC)nc3C)c(C)nn12 [PEXACERFONT]
7

Same thing, different molecule: N#Cc1c(Oc2cccc(OS(=O)(=O)CCCC(F)(F)F)c2)cccc1C(F)(F)F
11

Same thing, different molecule: CC(C)(C)c1cc(NC(=O)Nc2ccc(-c3cn4c(n3)sc3cc(OCCN5CCOCC5)ccc34)cc2)no1 [QUIZARTINIB]
16

Same thing, different molecule: CN1CCN(c2cc(-c3ccccc3)nc(N)n2)CC1
9

Same thing, different molecule: Cl.NCCc1ccc(O)c(O)c1 [DOPAMINE HYDROCHLORIDE]
11

Same thing, different molecule: COC[C@@H](c1ccc(C(F)(F)F)cc1)N1CCN(C2(C)CCN(C(=O)c3c(C)ncnc3C)CC2)C[C@@H]1C.O=C(O)/C=C\C(=O)O [VICRIVIROC MALEATE]
10

Same thing, different molecule: NCCc1cn(S(=O)(=O)c2c(Cl)nc3sccn23)c2ccccc12.O=C(O)C(=O)O
8

Same thing, different molecule: CCCCC1=NC2(CCCC2)C(=O)N1Cc1ccc(-c2ccccc2-c2nnn[nH]2)cc1 [IRBESARTAN]
10

Same thing, different molecule: Cc1sc2c(c1C)C(c1ccc(Cl)cc1)=N[C@@H](CC(=O)NCCCCCCCCNC(=O)COc1cccc3c1C(=O)N(C1CCC(=O)NC1=O)C3=O)c1nnc(C)n1-2 (some centres undefined)
10

Same thing, different molecule: CCCOc1ccc2[nH]cc(C3=CCNCC3)c2n1.Cl
10

Same thing, different molecule: Cc1cccc(NC(=O)CN2CCC(c3ccccn3)CC2)c1.Cl.Cl
8

Same thing, different molecule: O=C(NCCN1CCC(n2c(=O)[nH]c3cc(Cl)ccc32)CC1)c1ccc(F)cc1 [HALOPEMIDE]
7

Same thing, different molecule: CC(=O)Nc1cccc2c1c(Sc1ccc(Cl)cc1)c(C)n2CC(=O)O [AZD1981]
9
